- System: anaplastic large cell lymphoma cells (Karpas299)
- assay name: In vitro potency (CellTiter-Glo, 96 h) on Karpas299
- Type: cell-based
- condition details: Homo sapiens, KARPAS-299, 96 h, CPT free drugs; CellTiter-Glo after 96 h exposure; read-out: Karpas299 IC50
# reported IC50; entries follow
Answer format: numeric, nM implied, no suffix.

Look over these answered cases.
Given CC[C@@]1(O)C(=O)OCc2c1cc1n(c2=O)Cc2c-1nc1cc(F)c(C)c(-c3cccc(O)c3)c1c2CN , report its IC50 on anaplastic large cell lymphoma cells (Karpas299). 4

Given CC[C@@]1(O)C(=O)OCc2c1cc1n(c2=O)Cc2c-1nc1cc(F)cc(Br)c1c2CN , report its IC50 on anaplastic large cell lymphoma cells (Karpas299). 36

Given CC[C@@]1(O)C(=O)OCc2c1cc1n(c2=O)Cc2c-1nc1cc(F)c(C)c(-c3ccco3)c1c2CN , report its IC50 on anaplastic large cell lymphoma cells (Karpas299). 8

Given CC[C@@]1(O)C(=O)OCc2c1cc1n(c2=O)Cc2c-1nc1cc(F)c(C)c(C3=CCN(C)CC3)c1c2CN , report its IC50 on anaplastic large cell lymphoma cells (Karpas299). 25

Given CC[C@@]1(O)C(=O)OCc2c1cc1n(c2=O)Cc2c-1nc1cc(F)c3c(c1c2CN)CCC3 , report its IC50 on anaplastic large cell lymphoma cells (Karpas299). 3

The record that follows has no IC50 shown yet.
Given CC[C@@]1(O)C(=O)OCc2c1cc1n(c2=O)Cc2c-1nc1cccc(OC)c1c2CN , report its IC50 on anaplastic large cell lymphoma cells (Karpas299). 28

----------
- System: anaplastic large cell lymphoma cells (DEL)
- assay name: In vitro potency (CellTiter-Glo, 96 h) on DEL
- Assay type: cell-based
- condition details: 96 h, read-out: DEL IC50
Threshold-based label: IC50 under 7 nM gives true, IC50 not under 7 nM gives false.

// below: answered compounds
# strict comparison: is reported IC50 < 7 nM? input = CC[C@@]1(O)C(=O)OCc2c1cc1n(c2=O)Cc2c-1nc1cc3c(cc1c2CN1CCC(N)CC1)OCO3 false

# strict comparison: is reported IC50 < 7 nM? input = CC[C@@]1(O)C(=O)OCc2c1cc1n(c2=O)Cc2c-1nc1cc3c(cc1c2CNCCCNC)OCO3 true

# strict comparison: is reported IC50 < 7 nM? input = CC[C@@]1(O)C(=O)OCc2c1cc1n(c2=O)Cc2c-1nc1cc3c(cc1c2CNCC(O)CN1CCOCC1)OCO3 (some centres unmarked) false

New cases:
# strict comparison: is reported IC50 < 7 nM? input = CC[C@@]1(O)C(=O)OCc2c1cc1n(c2=O)Cc2c-1nc1cc3c(cc1c2CNCCCN1CCN(C)CC1)OCO3 true
